Ref: the RNAGym collection of RNA variant scans (doi:10.7554/elife.90254)

Listing: self-cleavage of selected variants
B1: OR4K15 (parent)
chain: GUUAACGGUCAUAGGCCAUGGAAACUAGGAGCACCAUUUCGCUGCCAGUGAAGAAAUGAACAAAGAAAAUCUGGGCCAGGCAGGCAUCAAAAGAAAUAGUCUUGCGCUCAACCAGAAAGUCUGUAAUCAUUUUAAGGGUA

- Variants of: B1
- measurementProtocol: self-cleavage, relative activity (ratio to wild type); higher = more cleavage; in vitro, sequencing; the parent is a self-cleaving ribozyme
Form field (numeric): enter value without unit.

{"mutationString": "U2C A11G", "self-cleavage": 1.16}
{"mutationString": "U103C U132A", "self-cleavage": 1.03}
{"mutationString": "A56G G106U", "self-cleavage": 0.01}
{"mutationString": "A18G A60G", "self-cleavage": 0.97}
{"mutationString": "A23U U39C", "self-cleavage": 1.27}
{"mutationString": "U2A A91G", "self-cleavage": 0.7}
{"mutationString": "U133A G136U", "self-cleavage": 0.91}
{"mutationString": "G7A A68G", "self-cleavage": 1.92}
{"mutationString": "A78U U102C", "self-cleavage": 1.21}
{"mutationString": "U19G A69U", "self-cleavage": 0.96}

Continue with the variant presented below.
In: // query self-cleavage value for entry A62G U122G
Out: 2.99
